Listing: G protein dissociation, AUC of 10 μM compound (maximal response) of selected compounds
- TARGET_OF_ASSAY: hCB1 mutant F191A^3.27 (Homo sapiens, UniProt P21554, F191A)
- Construct: expressed in transfected cells; host or cells: HEK293
- Sequence (P21554 whole entry F191A): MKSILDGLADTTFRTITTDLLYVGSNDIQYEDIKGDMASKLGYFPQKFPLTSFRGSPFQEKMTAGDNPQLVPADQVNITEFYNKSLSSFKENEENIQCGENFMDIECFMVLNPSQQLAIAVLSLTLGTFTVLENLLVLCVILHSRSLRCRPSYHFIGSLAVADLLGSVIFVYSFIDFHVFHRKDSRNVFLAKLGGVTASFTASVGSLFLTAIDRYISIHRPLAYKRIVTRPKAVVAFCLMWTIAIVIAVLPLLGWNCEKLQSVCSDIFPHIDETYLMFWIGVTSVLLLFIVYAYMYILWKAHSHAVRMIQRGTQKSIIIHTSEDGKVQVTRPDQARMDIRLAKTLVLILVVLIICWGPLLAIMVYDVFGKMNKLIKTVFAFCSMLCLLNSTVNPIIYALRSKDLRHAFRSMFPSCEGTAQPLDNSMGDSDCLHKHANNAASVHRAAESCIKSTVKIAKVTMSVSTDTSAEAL
- PROTOCOL_TEXT: pIRES G protein dissociation BRET assay, F191A mutant
- Assay type: cell-based
- SETUP_CONDITIONS: 10 μM ligand alone
Hey, just send me the number, nothing else.

Worked examples follow.
> print(dat)
                                   compound                           target.of.assay  readout.value
1  O=[N+]([O-])C[C@H](c1ccccc1)c1c(-c2ccccc2)[nH]c2ccccc12  hCB1 mutant F191A^3.27 (Homo sapiens, UniProt P21554, F191A)           19.5
2  O=[N+]([O-])C[C@@H](c1ccccc1)c1c(-c2ccccc2)[nH]c2ccccc12  hCB1 mutant F191A^3.27 (Homo sapiens, UniProt P21554, F191A)           22.1
3  Cc1ccc2c(C(C[N+](=O)[O-])c3cccs3)c(-c3ccccc3)[nH]c2c1 (stereo not shown)  hCB1 mutant F191A^3.27 (Homo sapiens, UniProt P21554, F191A)           35.0

For the compound `CCCCCCC(C)(C)c1ccc([C@@H]2C[C@H](O)CC[C@H]2CCCO)c(O)c1` , give its reported G protein dissociation, AUC of 10 μM compound (maximal response).
−117.8

Origin of values: paper PMC10892375
